The origin of these recorded values is patent US20250049798A1.

Experimental target: HiBiT tagged Wee1 (Homo sapiens, UniProt P30291)
Sequence (P30291 whole entry): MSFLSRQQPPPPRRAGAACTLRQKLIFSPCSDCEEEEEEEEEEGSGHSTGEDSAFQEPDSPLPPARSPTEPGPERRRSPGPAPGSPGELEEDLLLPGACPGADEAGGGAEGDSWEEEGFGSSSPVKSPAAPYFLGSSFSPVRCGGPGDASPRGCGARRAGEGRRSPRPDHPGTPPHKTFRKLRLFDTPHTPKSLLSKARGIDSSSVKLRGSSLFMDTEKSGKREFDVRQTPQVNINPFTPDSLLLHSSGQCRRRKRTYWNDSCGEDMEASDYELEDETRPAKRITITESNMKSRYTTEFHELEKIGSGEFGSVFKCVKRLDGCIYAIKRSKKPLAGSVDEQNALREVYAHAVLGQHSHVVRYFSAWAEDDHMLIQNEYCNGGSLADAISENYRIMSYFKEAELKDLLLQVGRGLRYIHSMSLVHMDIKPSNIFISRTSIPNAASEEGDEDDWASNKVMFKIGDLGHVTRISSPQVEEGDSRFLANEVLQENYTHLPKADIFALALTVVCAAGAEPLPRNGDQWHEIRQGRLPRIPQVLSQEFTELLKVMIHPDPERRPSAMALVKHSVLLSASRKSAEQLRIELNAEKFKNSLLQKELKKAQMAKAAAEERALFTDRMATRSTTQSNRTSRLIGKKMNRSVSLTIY
Procedure text: Wee1 protein degradation assay (HiBiT assay)
Format: cell-based
Measurement parameters: engineered HT-1080 cells, 20 hours
Readout type: DC50

Molecule: C=CCn1c(=O)c2cnc(Nc3ccc(N4CCC(CN5CCN(c6ccc(NC7CCC(=O)NC7=O)cc6F)CC5)CC4)c(C)c3)nc2n1-c1ccc2c(n1)[C@](C)(O)CC2 (some centres unmarked) [Compound 132]
Data value: < 100 nM

Molecule: C=CCn1c(=O)c2cnc(Nc3ccc(N4CCC(CN5CCC(c6ccc(NC7CCC(=O)NC7=O)cc6)CC5)CC4)cc3)nc2n1-c1cccc(C(C)(C)O)n1 (centres unmarked) [Compound 72]
Data value: < 100 nM

Molecule: Cc1cc(Nc2ncc3c(n2)N(C)CN(c2c(Cl)cccc2Cl)C3=O)ccc1N1CCC(CN2CC3(C2)CN(c2ccc4c(c2)C(=O)N(C2CCC(=O)NC2=O)C4=O)C3)CC1 (centres unmarked) [Compound 32]
Data value: 100 to 1000 nM

Molecule: C=CCn1c(=O)c2cnc(Nc3ccc(N4CC5(CCN(C6CN(c7ccc(NC8CCC(=O)NC8=O)cc7F)C6)CC5)C4)cc3)nc2n1-c1ccc2c(n1)[C@@](O)(CC)CC2 (some centres unmarked) [Compound 179]
Data value: < 100 nM

Molecule: C=CCn1c(=O)c2cnc(Nc3ccc(N4CCN(CC5CCN(c6ccc(NC7CCC(=O)NC7=O)cc6Cl)CC5)CC4)cc3)nc2n1-c1cccc(C(C)(C)O)n1 (centres unmarked) [Compound 88]
Data value: < 100 nM

====

Entries and their log10(AUC(0-inf))
Procedure text: Pharmacokinetic study in mice (IV and PO)
Assay type: in vivo
Measurement parameters: mouse, plasma; PO (10 mg/kg), male CD1 mice
Readout type: log10(AUC(0-inf)) (log10 of the value in ng·h/mL)

Molecule: C=CCn1c(=O)c2cnc(Nc3ccc(N4CCC(CN5CCC(c6cccc7c6n(C)c(=O)n7C6CCC(=O)NC6=O)CC5)CC4)cc3)nc2n1-c1cccc(C(C)(C)O)n1 (centres unmarked)
log10(AUC(0-inf)): 4.13
--
Molecule: C=CCn1c(=O)c2cnc(Nc3ccc(C4CCN(CC5CCN(c6cccc7c6n(C)c(=O)n7C6CCC(=O)NC6=O)CC5)CC4)cc3)nc2n1-c1cccc(C(C)(C)O)n1 (centres unmarked)
log10(AUC(0-inf)): 4.50
--
Molecule: C=CCn1c(=O)c2cnc(Nc3ccc(N4CCC(CN5CCC(c6ccc(NC7CCC(=O)NC7=O)cc6)CC5)CC4)cc3)nc2n1-c1cccc(C(C)(C)O)n1 (centres unmarked)
log10(AUC(0-inf)): 3.66
--
Molecule: C=CCn1c(=O)c2cnc(Nc3ccc(N4CCN(CC5CCN(c6ccc(NC7CCC(=O)NC7=O)cc6F)CC5)CC4)cc3)nc2n1-c1ccc2c(n1)[C@@](O)(CC)CC2 (mixture of isomers)
log10(AUC(0-inf)): 4.73
--
Molecule: C=CCn1c(=O)c2cnc(Nc3ccc(N4CCC(CN5CCN(c6ccc(NC7CCC(=O)NC7=O)cc6F)CC5)CC4)cc3)nc2n1-c1cccc(C(C)(C)O)n1 (centres unmarked)
log10(AUC(0-inf)): 4.40

====

Procedure text: Determination of kinetic solubility
Type: physicochemical
Measurement parameters: PBS, aqueous buffer, kinetic from dmso stock; pH 3.0; shaking at 25° C. for 2 hours; read-out: Kinetic solubility (μM) pH 3.0
Readout type: solubility kinetic at 2 h

Compound: C=CCn1c(=O)c2cnc(Nc3ccc(N4CCC(CN(C)C5CCN(c6cccc7c6n(C)c(=O)n7C6CCC(=O)NC6=O)CC5)CC4)cc3)nc2n1-c1cccc(C(C)(C)O)n1 (stereo not shown) [Compound 61]
Data value: 299 µM

Compound: C=CCn1c(=O)c2cnc(Nc3ccc(C4CCN(CC5CCN(c6cccc7c6n(C)c(=O)n7C6CCC(=O)NC6=O)CC5)CC4)cc3)nc2n1-c1cccc(C(C)(C)O)n1 (stereo not shown) [Compound 66]
Data value: 252 µM

Compound: C=CCn1c(=O)c2cnc(Nc3ccc(N4CCN(CC5CCN(c6ccc(NC7CCC(=O)NC7=O)cc6F)CC5)CC4)cc3)nc2n1-c1ccc2c(n1)[C@@](O)(CC)CC2 (mixture of isomers) [Compound 110]
Data value: 233 µM

Compound: C=CCn1c(=O)c2cnc(Nc3ccc(N4CCC(CN5CCC(c6cccc7c6n(C)c(=O)n7C6CCC(=O)NC6=O)CC5)CC4)cc3)nc2n1-c1cccc(C(C)(C)O)n1 (stereo not shown) [Compound 55]
Data value: 194 µM

====

Experimental target: HiBiT tagged Wee1 (Homo sapiens, UniProt P30291)
Procedure text: Wee1 protein degradation assay (HiBiT assay)
Format: cell-based
Measurement parameters: engineered HT-1080 cells, 20 hours
Entries and their DC50

Compound: Cc1cc(Nc2ncc3c(n2)N(C)CN(c2c(Cl)cccc2Cl)C3=O)ccc1C1CCN(CC2CCN(c3ccc4c(c3)C(=O)N(C3CCC(=O)NC3=O)C4=O)CC2)CC1 (stereo not drawn) [Compound 16]
Experimental target: HiBiT tagged Wee1 (Homo sapiens, UniProt P30291)
DC50: > 1000 nM
//
Compound: C=CCn1c(=O)c2cnc(Nc3ccc(C4CCN(CC5CCN(c6ccc7c(N8CCC(=O)NC8=O)nn(C)c7c6)CC5)CC4)cc3)nc2n1-c1cccc(C(C)(C)O)n1 [Compound 104]
Experimental target: HiBiT tagged Wee1 (Homo sapiens, UniProt P30291)
DC50: < 100 nM
//
Compound: C=CCn1c(=O)c2cnc(Nc3ccc(N4CCC(CN5CCN(c6ccc(NC7CCC(=O)NC7=O)cc6F)CC5)CC4)cc3)nc2n1-c1cccc(C(C)(C)O)n1 (single isomer, unassigned) [Compound 100-A]
Experimental target: HiBiT tagged Wee1 (Homo sapiens, UniProt P30291)
DC50: < 100 nM

====

Procedure text: Permeability study in MDCKII cells (bidirectional A to B and B to A)
Assay type: in vitro ADME, Canine
Measurement parameters: dog, MDCK, pH 7.4, 120 minutes, basolateral to apical
Readout type: Papp B→A at 120 min, 1 μM (×10⁻⁶ cm/s)

Compound: C=CCn1c(=O)c2cnc(Nc3ccc(N4CCC(CN5CCC(c6cccc7c6n(C)c(=O)n7C6CCC(=O)NC6=O)CC5)CC4)cc3)nc2n1-c1cccc(C(C)(C)O)n1 (stereo not drawn)
Readout type: Papp B→A at 120 min, 1 μM
Data value: 7.09
--
Compound: C=CCn1c(=O)c2cnc(Nc3ccc(N4CCN(CC5CCN(c6cccc7c6n(C)c(=O)n7C6CCC(=O)NC6=O)CC5)CC4)cc3)nc2n1-c1cccc(C(C)(C)O)n1 (stereo not drawn)
Readout type: Papp B→A at 120 min, 1 μM
Data value: 1.27
--
Compound: C=CCn1c(=O)c2cnc(Nc3ccc(N4CCN(CC5CCN(c6ccc(NC7CCC(=O)NC7=O)cc6F)CC5)CC4)cc3)nc2n1-c1ccc2c(n1)[C@@](O)(CC)CC2 (mixture of isomers)
Readout type: Papp B→A at 120 min, 1 μM
Data value: 2.11

====

Experimental target: HiBiT tagged Wee1 (Homo sapiens, UniProt P30291)
Procedure text: Wee1 protein degradation assay (HiBiT assay)
Assay type: cell-based
Measurement parameters: engineered HT-1080 cells, 20 hours; maximum percentage of Wee1 degradation; read-out: HiBiT Wee1: Dmax

Compound: C=CCn1c(=O)c2cnc(Nc3ccc(N4CC5(CCN(C6CN(c7ccc(NC8CCC(=O)NC8=O)cc7F)C6)CC5)C4)cc3)nc2n1-c1ccc2c(n1)[C@@](O)(CC)CC2 (stereo partly drawn)
Dmax: > 75%
--
Compound: O=C1CCC(N2C(=O)c3ccc(N4CCC(CN5CCc6ccc(Nc7ncc8c(=O)n(-c9c(Cl)cccc9Cl)c9nccn9c8n7)cc6C5)CC4)cc3C2=O)C(=O)N1 (stereo not drawn)
Dmax: < 50%
--
Compound: C=CCn1c(=O)c2cnc(Nc3ccc4c(c3)CN(CC3CN(c5ccc6c(c5)C(=O)N(C5CCC(=O)NC5=O)C6=O)C3)CC4)nc2n1-c1cccc(C(C)(C)O)n1 (stereo not drawn)
Dmax: < 50%

====

Entries and their DC50
Experimental target: HiBiT tagged Wee1 (Homo sapiens, UniProt P30291)
Procedure text: Wee1 protein degradation assay (HiBiT assay)
Format: cell-based
Measurement parameters: engineered HT-1080 cells, 20 hours
Readout type: DC50

Molecule: C=CCn1c(=O)c2cnc(Nc3ccc(N4CCN(CC5CCN(c6ccc7c(N8CCC(=O)NC8=O)nn(C)c7c6)CC5)CC4)cc3)nc2n1-c1cccc(C(C)(C)O)n1
Data value: < 0.1 µM
//
Molecule: C=CCn1c(=O)c2cnc(Nc3ccc(N4CCC(CN5CCC(c6ccc7c(N8CCC(=O)NC8=O)nn(C)c7c6)CC5)CC4)cc3)nc2n1-c1cccc(C(C)(C)O)n1
Data value: < 0.1 µM
//
Molecule: COc1ccc(C(=O)N2CCC(CCN3CCC(c4ccc(Nc5ncc6c(=O)n(-c7c(Cl)cccc7Cl)c7nccn7c6n5)cc4)CC3)CC2)cc1N1CCC(=O)NC1=O
Data value: > 1 µM
//
Molecule: C=CCn1c(=O)c2cnc(Nc3ccc(N4CCN(CC5CCN(c6ccc(NC7CCC(=O)NC7=O)cc6F)CC5)[C@H](COC)C4)cc3)nc2n1-c1ccc2c(n1)[C@@](O)(CC)CC2 (stereo partly drawn)
Data value: < 0.1 µM
//
Molecule: C=CCn1c(=O)c2cnc(Nc3ccc(N4CCC(CN5CCN(c6ccc(NC7CCC(=O)NC7=O)cc6F)CC5)CC4)c(C)c3)nc2n1-c1ccc2c(n1)[C@@](C)(O)CC2 (stereo partly drawn)
Data value: < 0.1 µM
//
Molecule: C=CCn1c(=O)c2cnc(Nc3ccc(N4CCN(C5CCN(c6ccc(NC7CCC(=O)NC7=O)cc6F)CC5)CC4)cc3)nc2n1-c1cccc(C(C)(C)O)n1 (stereo not drawn)
Data value: < 0.1 µM
//
Molecule: C=CCn1c(=O)c2cnc(Nc3ccc(N4CCC(CN5CCN(c6cccc7c6n(C)c(=O)n7C6CCC(=O)NC6=O)CC5)CC4)cc3)nc2n1-c1cccc(C(C)(C)O)n1 (stereo not drawn)
Data value: < 0.1 µM
//
Molecule: C=CCn1c(=O)c2cnc(Nc3ccc(N4CCN(CC5CCN(c6ccc(NC7CCC(=O)NC7=O)cc6F)CC5)CC4)cc3)nc2n1-c1ccc(=O)n(C(C)C)n1 (stereo not drawn)
Data value: < 0.1 µM
//
Molecule: Cc1cc(Nc2ncc3c(n2)N(C)CN(c2c(Cl)cccc2Cl)C3=O)ccc1N1CCC(CN2CCN(c3ccc4c(c3)CN(C3CCC(=O)NC3=O)C4=O)CC2)CC1 (stereo not drawn)
Data value: > 1 µM
//
Molecule: C=CCn1c(=O)c2cnc(Nc3ccc(N4CCC(N5CCN(c6cccc7c6n(C)c(=O)n7C6CCC(=O)NC6=O)CC5)CC4)cc3)nc2n1-c1cccc(C(C)(C)O)n1 (stereo not drawn)
Data value: < 0.1 µM
//
Molecule: C=CCn1c(=O)c2cnc(Nc3ccc(N4CCN(CC5CCN(c6ccc(NC7CCC(=O)NC7=O)cc6F)CC5)CC4)c(C)c3)nc2n1-c1ccc2c(n1)[C@](C)(O)CC2 (stereo partly drawn)
Data value: < 0.1 µM
//
Molecule: C=CCn1c(=O)c2cnc(Nc3ccc(N4CCN(CC5CCN(c6ccc7c(C8CCC(=O)NC8=O)nn(C)c7c6)CC5)CC4)cc3)nc2n1-c1cccc(C(C)(C)O)n1 (stereo not drawn)
Data value: < 0.1 µM
//
Molecule: C=CCn1c(=O)c2cnc(Nc3ccc(C4CCN(CC5CCN(c6ccc(C(=O)NC7CCC(=O)NC7=O)nc6)CC5)CC4)cc3)nc2n1-c1cccc(C(C)(C)O)n1 (stereo not drawn)
Data value: > 1 µM
//
Molecule: C=CCn1c(=O)c2cnc(Nc3ccc4c(c3)CN(CCCCCCNc3ccc5c(c3)C(=O)N(C3CCC(=O)NC3=O)C5=O)CC4)nc2n1-c1cccc(C(C)(C)O)n1 (stereo not drawn)
Data value: > 1 µM
//
Molecule: C=CCn1c(=O)c2cnc(Nc3ccc(N4CCN(CC5CCN(c6ccc(NC7CCC(=O)NC7=O)cc6F)CC5)CC4)cc3)nc2n1-c1ccc2c(n1)[C@@](C)(O)CCC2 (single isomer, unassigned)
Data value: < 0.1 µM
//
Molecule: C=CCn1c(=O)c2cnc(Nc3ccc(N4CCN(CC5CCN(c6c(F)cc(NC7CCC(=O)NC7=O)cc6F)CC5)CC4)cc3)nc2n1-c1ccc2c(n1)[C@@](O)(CC)CC2 (stereo partly drawn)
Data value: < 0.1 µM
//
Molecule: C=CCn1c(=O)c2cnc(Nc3ccc(N4CCN(CCCc5ccc6c(c5)n(C)c(=O)n6C5CCC(=O)NC5=O)CC4)cc3)nc2n1-c1cccc(C(C)(C)O)n1 (stereo not drawn)
Data value: < 0.1 µM
//
Molecule: C=CCn1c(=O)c2cnc(Nc3ccc(N4CCC(N5CCC(c6ccc(NC7CCC(=O)NC7=O)cc6F)CC5)CC4)cc3)nc2n1-c1cccc(C(C)(C)O)n1 (stereo not drawn)
Data value: < 0.1 µM
//
Molecule: C=CCn1c(=O)c2cnc(Nc3ccc(N4CC5(CC(N6CCN(c7ccc(NC8CCC(=O)NC8=O)cc7F)CC6)C5)C4)cc3)nc2n1-c1ccc2c(n1)[C@@](O)(CC)CC2 (stereo partly drawn)
Data value: < 0.1 µM
//
Molecule: C=CCn1c(=O)c2cnc(Nc3ccc(C4CCN(CC5CCN(c6ccc(NC7CCC(=O)NC7=O)cc6)CC5)CC4)cc3)nc2n1-c1cccc(C(C)(C)O)n1 (stereo not drawn)
Data value: < 0.1 µM
//
Molecule: C=CCn1c(=O)c2cnc(Nc3ccc(N4CCN(CC5CCN(c6cccc7c6n(C)c(=O)n7C6CCC(=O)NC6=O)CC5)CC4)cc3)nc2n1-c1cccc(C(C)(C)O)n1 (stereo not drawn)
Data value: < 0.1 µM
